The origin of these recorded values is ChEMBL document CHEMBL4334526.

Listed here: items and their measured IC50.
- MEASUREMENT_TARGET: Histone deacetylase 2 (Homo sapiens, UniProt Q92769)
- Sequence (Q92769 whole entry): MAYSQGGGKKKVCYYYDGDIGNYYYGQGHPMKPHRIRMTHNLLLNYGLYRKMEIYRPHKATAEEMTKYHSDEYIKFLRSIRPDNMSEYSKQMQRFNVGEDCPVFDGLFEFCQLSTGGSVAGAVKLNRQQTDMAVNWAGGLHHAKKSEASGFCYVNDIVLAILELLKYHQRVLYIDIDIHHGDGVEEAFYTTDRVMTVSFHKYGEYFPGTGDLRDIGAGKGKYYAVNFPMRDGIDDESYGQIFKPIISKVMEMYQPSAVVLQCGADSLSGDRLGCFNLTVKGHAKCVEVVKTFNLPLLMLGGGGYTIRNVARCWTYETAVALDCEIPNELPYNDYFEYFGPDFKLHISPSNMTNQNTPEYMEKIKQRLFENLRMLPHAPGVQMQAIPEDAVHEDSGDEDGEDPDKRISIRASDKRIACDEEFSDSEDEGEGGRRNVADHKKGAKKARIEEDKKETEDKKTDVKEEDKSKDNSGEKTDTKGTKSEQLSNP
- PROCEDURE_SUMMARY: Inhibition of recombinant human full length C-terminal FLAG-tagged HDAC2 expressed in baculovirus infected Sf9 insect cells using Boc-Lys(epsilon-acetyl)-AMC as substrate incubated for 90 mins by fluorescence assay

COMPOUND_STRUCTURE	READOUT_UNIT	IC50
Cc1cc(C)cc(C(=O)N(CCCCCC(=O)Nc2ccccc2N)CC(=O)NCc2ccccc2)c1	nM	1600
Cc1cc(C)cc(C(=O)N(CC(=O)NCc2ccccc2)Cc2ccc(C(=O)Nc3ccccc3N)cc2)c1	nM	485
Cc1cc(C)cc(CNC(=O)CN(CCCCCC(=O)Nc2ccccc2N)C(=O)c2cc(C)cc(C)c2)c1	nM	4100
Nc1ccccc1NC(=O)c1ccc(CN(CC(=O)NCc2ccccc2)C(=O)c2cccnc2)cc1	nM	786

###

# pIC50 listing for each entry below
- MEASUREMENT_TARGET: Protein deacetylase HDAC6 (Homo sapiens)
- Sequence (Q9UBN7 whole entry): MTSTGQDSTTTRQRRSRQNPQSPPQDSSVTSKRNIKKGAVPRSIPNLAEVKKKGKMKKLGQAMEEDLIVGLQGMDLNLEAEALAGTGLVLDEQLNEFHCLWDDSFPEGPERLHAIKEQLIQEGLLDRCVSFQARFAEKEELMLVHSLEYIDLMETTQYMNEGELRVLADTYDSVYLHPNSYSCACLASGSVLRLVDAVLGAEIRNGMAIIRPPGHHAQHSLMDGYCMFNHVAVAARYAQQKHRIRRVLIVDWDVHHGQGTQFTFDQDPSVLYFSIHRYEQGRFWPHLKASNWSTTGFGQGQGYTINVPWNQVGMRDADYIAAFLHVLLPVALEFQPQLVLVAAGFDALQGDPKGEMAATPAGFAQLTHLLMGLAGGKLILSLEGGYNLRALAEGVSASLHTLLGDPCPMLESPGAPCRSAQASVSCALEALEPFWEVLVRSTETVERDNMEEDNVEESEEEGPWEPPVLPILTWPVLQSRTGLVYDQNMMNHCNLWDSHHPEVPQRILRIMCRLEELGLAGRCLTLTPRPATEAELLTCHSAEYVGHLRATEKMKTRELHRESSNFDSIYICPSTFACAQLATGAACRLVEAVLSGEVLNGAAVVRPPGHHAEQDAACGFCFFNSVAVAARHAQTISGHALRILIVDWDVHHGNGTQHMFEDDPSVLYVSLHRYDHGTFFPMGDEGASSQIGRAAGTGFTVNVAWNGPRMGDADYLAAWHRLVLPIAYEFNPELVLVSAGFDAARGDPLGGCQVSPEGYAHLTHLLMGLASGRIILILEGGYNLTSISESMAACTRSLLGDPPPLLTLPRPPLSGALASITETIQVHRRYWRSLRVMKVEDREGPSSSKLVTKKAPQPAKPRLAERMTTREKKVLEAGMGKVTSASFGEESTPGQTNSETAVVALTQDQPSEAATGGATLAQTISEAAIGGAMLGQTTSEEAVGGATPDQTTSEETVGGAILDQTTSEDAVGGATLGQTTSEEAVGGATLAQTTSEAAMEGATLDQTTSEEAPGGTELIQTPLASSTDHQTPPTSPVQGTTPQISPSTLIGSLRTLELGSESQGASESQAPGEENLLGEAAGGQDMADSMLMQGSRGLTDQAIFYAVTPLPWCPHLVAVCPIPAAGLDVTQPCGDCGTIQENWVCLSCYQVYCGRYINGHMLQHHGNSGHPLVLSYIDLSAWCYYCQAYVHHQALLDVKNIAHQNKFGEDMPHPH
- PROCEDURE_SUMMARY: Inhibition of human full length N-terminal GST-tagged HDAC6 expressed in baculovirus infected Sf9 insect cells ZMAL as substrate incubated for 90 mins by fluorescence assay
pIC50: −log10 of the molar value.

COMPOUND_STRUCTURE	pIC50
Cc1cc(C)cc(C(=O)N(CCCCCC(=O)Nc2ccccc2N)CC(=O)NCc2ccccc2)c1	< 5.00
Cc1cc(C)cc(C(=O)N(CC(=O)NCc2ccccc2)Cc2ccc(C(=O)Nc3cc(-c4ccccc4)ccc3N)cc2)c1	< 5.00
CN(C)c1ccc(C(=O)N(CCCCCC(=O)Nc2ccccc2N)CC(=O)NCc2ccccc2)cc1	< 5.00
Cc1cc(C)cc(C(=O)N(CCCCCC(=O)Nc2cc(-c3ccccc3)ccc2N)CC(=O)NCc2ccccc2)c1	< 5.00
Cc1cc(C)cc(C(=O)N(CC(=O)NCc2ccccc2)Cc2ccc(C(=O)Nc3ccccc3N)cc2)c1	< 5.00
Nc1ccccc1NC(=O)CCCCCN(CC(=O)NCc1ccccc1)C(=O)c1cccc2ccccc12	< 5.00
Cc1ccc(CNC(=O)CN(CCCCCC(=O)Nc2ccccc2N)C(=O)c2cc(C)cc(C)c2)cc1	< 5.00
CN(C)c1ccc(C(=O)N(CC(=O)NCc2ccccc2)Cc2ccc(C(=O)Nc3ccccc3N)cc2)cc1	< 5.00
Cc1cc(C)cc(C(=O)N(CCCCCC(=O)Nc2ccccc2N)CC(=O)NC2CCCCC2)c1	< 5.00
CN(C)c1ccc(C(=O)N(CCCCCC(=O)Nc2cc(F)ccc2N)CC(=O)NCc2ccccc2)cc1	< 5.00
Cc1cc(C)cc(CNC(=O)CN(CCCCCC(=O)Nc2ccccc2N)C(=O)c2cc(C)cc(C)c2)c1	< 5.00
Nc1ccccc1NC(=O)c1ccc(CN(CC(=O)NCc2ccccc2)C(=O)c2cccnc2)cc1	< 5.00
Nc1ccccc1NC(=O)CCCCCN(CC(=O)NC1CCCCC1)C(=O)c1ccccc1	< 5.00
Nc1ccccc1NC(=O)CCCCCN(CC(=O)NC1CCCCC1)C(=O)c1cccc2ccccc12	< 5.00
CN(C)c1ccc(C(=O)N(CC(=O)NCc2ccccc2)Cc2ccc(C(=O)Nc3cc(-c4ccccc4)ccc3N)cc2)cc1	< 5.00
Cc1cc(C)cc(C(=O)N(CC(=O)NCc2ccccc2)Cc2ccc(C(=O)Nc3cc(F)ccc3N)cc2)c1	< 5.00
COc1ccc(CNC(=O)CN(CCCCCC(=O)Nc2ccccc2N)C(=O)c2cc(C)cc(C)c2)cc1	< 5.00

###

- MEASUREMENT_TARGET: Histone deacetylase 1 (Homo sapiens)
- Sequence (Q13547 whole entry): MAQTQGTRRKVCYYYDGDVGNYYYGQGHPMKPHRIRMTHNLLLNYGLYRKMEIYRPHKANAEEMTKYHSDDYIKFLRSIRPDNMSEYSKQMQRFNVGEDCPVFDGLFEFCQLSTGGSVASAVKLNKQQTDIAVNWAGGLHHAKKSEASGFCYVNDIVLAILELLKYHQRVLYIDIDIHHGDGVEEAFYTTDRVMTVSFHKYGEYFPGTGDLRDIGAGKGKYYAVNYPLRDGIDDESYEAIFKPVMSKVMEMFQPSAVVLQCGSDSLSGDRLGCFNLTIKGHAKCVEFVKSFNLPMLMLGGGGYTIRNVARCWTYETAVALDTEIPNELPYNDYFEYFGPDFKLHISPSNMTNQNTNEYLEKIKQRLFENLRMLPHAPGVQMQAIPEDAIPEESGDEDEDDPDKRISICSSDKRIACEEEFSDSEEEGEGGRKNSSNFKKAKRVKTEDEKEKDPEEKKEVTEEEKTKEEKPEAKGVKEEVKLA
- PROCEDURE_SUMMARY: Inhibition of recombinant human full length C-terminal His/FLAG-tagged HDAC1 expressed in baculovirus infected Sf9 insect cells using ZMAL as substrate incubated for 90 mins by fluorescence assay
pIC50: −log10 of the molar value.

COMPOUND_STRUCTURE	pIC50
Cc1cc(C)cc(C(=O)N(CC(=O)NCc2ccccc2)Cc2ccc(C(=O)Nc3cc(-c4ccccc4)ccc3N)cc2)c1	7.29
Cc1cc(C)cc(CNC(=O)CN(CCCCCC(=O)Nc2ccccc2N)C(=O)c2cc(C)cc(C)c2)c1	6.32
Cc1cc(C)cc(C(=O)N(CCCCCC(=O)Nc2ccccc2N)CC(=O)NCc2ccccc2)c1	5.94
Cc1cc(C)cc(C(=O)N(CCCCCC(=O)Nc2ccccc2N)CC(=O)NC2CCCCC2)c1	5.26

###

Listing of entries alongside the reported IC50.
- MEASUREMENT_TARGET: Histone deacetylase 4 (Homo sapiens)
- Sequence (P56524 whole entry, the tested form may be a part): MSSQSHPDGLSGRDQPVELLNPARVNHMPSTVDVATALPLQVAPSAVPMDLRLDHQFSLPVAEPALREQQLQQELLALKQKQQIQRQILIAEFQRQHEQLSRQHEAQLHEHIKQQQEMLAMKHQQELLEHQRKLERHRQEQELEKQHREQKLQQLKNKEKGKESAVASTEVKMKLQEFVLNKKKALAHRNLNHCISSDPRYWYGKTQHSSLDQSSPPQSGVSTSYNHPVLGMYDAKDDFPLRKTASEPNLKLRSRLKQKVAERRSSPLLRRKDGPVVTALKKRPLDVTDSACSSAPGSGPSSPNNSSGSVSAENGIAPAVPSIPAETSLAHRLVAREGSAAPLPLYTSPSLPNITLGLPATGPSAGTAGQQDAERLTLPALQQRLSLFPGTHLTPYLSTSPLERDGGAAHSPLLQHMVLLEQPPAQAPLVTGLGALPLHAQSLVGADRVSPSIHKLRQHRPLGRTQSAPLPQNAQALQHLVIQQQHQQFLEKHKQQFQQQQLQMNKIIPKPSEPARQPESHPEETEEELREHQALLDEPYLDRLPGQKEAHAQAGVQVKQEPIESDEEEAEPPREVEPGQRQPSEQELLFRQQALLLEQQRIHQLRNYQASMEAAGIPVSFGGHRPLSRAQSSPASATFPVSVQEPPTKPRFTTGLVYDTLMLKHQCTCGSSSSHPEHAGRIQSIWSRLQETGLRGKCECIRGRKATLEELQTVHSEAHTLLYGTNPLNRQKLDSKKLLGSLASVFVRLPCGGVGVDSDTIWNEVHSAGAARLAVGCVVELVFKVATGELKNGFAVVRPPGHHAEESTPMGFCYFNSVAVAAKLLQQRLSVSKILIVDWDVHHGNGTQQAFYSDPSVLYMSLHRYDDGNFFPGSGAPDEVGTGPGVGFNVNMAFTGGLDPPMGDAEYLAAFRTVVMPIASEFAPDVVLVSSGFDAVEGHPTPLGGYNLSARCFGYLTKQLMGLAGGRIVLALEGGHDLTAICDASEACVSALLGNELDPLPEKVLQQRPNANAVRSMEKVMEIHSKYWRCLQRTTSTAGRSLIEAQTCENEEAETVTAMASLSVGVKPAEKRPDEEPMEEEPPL
- PROCEDURE_SUMMARY: Inhibition of recombinant human N-terminal GST-fused and C-terminal His-tagged HDAC4 (627 to 1084 residues) expressed in baculovirus infected insect cells using Boc-Lys(TFa)-AMC as substrate preincubated for 5 mins followed by substrate addition and measured after 90 mins by fluorescence assay

COMPOUND_STRUCTURE	MEASUREMENT_TARGET	IC50
CN(C)c1ccc(C(=O)N(CC(=O)NCc2ccccc2)Cc2ccc(C(=O)Nc3ccccc3N)cc2)cc1	Histone deacetylase 4 (Homo sapiens)	> 10 µM
Cc1cc(C)cc(C(=O)N(CCCCCC(=O)Nc2cc(-c3ccccc3)ccc2N)CC(=O)NCc2ccccc2)c1	Histone deacetylase 4 (Homo sapiens)	> 10 µM
Cc1cc(C)cc(C(=O)N(CC(=O)NCc2ccccc2)Cc2ccc(C(=O)Nc3cc(-c4ccccc4)ccc3N)cc2)c1	Histone deacetylase 4 (Homo sapiens)	> 10 µM

###

- MEASUREMENT_TARGET: Histone deacetylase 3/Nuclear receptor corepressor 2 (HDAC3/NCoR2) (Homo sapiens)
- Sequence (O15379 whole entry): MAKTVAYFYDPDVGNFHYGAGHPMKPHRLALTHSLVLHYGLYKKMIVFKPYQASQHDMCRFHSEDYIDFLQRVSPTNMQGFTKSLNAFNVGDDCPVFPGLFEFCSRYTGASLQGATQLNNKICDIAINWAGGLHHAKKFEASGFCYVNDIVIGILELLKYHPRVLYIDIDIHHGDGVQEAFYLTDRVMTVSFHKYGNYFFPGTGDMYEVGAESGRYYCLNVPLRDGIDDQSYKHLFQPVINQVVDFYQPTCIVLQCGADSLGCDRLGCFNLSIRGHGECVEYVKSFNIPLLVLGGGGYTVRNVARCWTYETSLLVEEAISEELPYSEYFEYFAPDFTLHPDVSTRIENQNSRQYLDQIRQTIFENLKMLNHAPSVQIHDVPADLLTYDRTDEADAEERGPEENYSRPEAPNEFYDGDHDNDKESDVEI
- Sequence (Q9Y618 whole entry, further chain): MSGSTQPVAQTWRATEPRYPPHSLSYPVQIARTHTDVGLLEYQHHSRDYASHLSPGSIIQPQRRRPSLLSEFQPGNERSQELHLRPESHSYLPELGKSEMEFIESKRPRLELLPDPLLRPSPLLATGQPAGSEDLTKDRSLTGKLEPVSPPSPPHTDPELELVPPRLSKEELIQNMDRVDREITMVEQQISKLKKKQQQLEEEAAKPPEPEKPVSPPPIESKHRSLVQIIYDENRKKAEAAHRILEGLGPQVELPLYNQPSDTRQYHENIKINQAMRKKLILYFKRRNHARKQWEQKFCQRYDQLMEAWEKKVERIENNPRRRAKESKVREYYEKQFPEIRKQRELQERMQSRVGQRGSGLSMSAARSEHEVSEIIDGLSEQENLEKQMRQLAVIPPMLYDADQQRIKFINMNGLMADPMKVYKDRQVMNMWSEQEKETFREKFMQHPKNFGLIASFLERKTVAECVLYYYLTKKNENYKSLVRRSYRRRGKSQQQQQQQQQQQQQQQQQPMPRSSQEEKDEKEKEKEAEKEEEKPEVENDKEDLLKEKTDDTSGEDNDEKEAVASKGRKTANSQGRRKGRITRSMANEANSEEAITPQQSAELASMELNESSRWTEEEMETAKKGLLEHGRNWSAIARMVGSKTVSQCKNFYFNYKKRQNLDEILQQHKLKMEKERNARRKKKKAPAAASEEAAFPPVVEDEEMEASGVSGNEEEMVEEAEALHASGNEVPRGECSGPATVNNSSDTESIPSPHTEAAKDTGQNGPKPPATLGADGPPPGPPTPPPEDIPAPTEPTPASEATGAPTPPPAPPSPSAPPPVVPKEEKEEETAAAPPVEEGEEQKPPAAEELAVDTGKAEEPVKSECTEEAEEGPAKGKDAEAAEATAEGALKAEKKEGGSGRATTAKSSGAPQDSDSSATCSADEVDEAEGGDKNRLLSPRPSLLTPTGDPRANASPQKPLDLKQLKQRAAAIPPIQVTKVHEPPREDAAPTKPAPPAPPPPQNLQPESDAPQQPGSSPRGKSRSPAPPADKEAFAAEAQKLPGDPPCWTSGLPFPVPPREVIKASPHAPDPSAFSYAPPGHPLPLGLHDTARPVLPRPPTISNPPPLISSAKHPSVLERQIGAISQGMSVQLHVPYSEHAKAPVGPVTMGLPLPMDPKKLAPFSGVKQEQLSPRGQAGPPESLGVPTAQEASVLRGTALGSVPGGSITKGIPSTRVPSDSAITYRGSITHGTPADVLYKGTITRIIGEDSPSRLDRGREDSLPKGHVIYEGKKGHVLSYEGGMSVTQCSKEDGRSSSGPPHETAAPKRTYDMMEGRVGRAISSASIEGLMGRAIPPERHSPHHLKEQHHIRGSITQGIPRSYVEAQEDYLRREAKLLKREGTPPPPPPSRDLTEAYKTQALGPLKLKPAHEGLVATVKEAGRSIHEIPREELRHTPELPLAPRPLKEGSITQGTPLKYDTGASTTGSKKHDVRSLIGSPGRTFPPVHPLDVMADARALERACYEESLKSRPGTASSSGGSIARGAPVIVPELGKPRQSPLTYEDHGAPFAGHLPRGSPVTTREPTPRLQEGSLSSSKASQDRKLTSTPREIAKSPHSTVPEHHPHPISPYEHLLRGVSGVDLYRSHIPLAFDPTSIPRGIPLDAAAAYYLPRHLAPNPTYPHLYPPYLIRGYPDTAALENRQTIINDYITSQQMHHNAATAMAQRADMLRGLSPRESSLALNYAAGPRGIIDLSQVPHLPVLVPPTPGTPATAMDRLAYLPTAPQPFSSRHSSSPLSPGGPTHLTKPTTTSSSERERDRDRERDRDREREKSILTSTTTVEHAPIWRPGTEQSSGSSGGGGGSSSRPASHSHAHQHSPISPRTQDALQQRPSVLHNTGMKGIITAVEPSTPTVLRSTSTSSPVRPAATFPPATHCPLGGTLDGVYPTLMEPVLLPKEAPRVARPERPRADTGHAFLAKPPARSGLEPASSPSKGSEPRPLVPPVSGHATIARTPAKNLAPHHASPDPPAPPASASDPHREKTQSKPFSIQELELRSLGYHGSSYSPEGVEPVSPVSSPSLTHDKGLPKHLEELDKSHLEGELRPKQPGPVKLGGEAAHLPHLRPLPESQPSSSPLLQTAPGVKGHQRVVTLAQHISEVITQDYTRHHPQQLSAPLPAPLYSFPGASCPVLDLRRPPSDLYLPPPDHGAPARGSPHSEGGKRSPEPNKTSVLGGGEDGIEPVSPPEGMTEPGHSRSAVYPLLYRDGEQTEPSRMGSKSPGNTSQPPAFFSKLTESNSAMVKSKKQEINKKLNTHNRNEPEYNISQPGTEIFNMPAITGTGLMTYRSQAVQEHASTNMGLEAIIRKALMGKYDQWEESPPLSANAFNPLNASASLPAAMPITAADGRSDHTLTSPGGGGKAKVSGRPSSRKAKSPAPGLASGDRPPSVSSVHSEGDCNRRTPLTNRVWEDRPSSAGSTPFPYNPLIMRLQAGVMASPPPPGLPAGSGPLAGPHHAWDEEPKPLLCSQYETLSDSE
- PROCEDURE_SUMMARY: biochemical
- Description: Inhibition of human recombinant full length C-terminal His-tagged HDAC3 (1 to 428 residues)/N-terminal GST-tagged NCOR2 (395 to 489 residues) expressed in baculovirus infected Sf9 insect cells using Boc-Lys(epsilon-acetyl)-AMC as substrate incubated for 90 mins by fluorescence assay
METRIC_NAME: IC50 (nM)

COMPOUND_STRUCTURE	RELATION	READING
Nc1ccccc1NC(=O)CCCCCN(CC(=O)NCc1ccccc1)C(=O)c1cccc2ccccc12	=	163
Nc1ccccc1NC(=O)CCCCCN(CC(=O)NC1CCCCC1)C(=O)c1cccc2ccccc12	=	646
Nc1ccccc1NC(=O)c1ccc(CN(CC(=O)NCc2ccccc2)C(=O)c2cccnc2)cc1	=	878
Cc1ccc(CNC(=O)CN(CCCCCC(=O)Nc2ccccc2N)C(=O)c2cc(C)cc(C)c2)cc1	=	478
Cc1cc(C)cc(C(=O)N(CC(=O)NCc2ccccc2)Cc2ccc(C(=O)Nc3cc(-c4ccccc4)ccc3N)cc2)c1	>	10000
CN(C)c1ccc(C(=O)N(CCCCCC(=O)Nc2cc(F)ccc2N)CC(=O)NCc2ccccc2)cc1	=	369
CN(C)c1ccc(C(=O)N(CC(=O)NCc2ccccc2)Cc2ccc(C(=O)Nc3ccccc3N)cc2)cc1	=	586
Cc1cc(C)cc(C(=O)N(CCCCCC(=O)Nc2ccccc2N)CC(=O)NCc2ccccc2)c1	=	250
Cc1cc(C)cc(C(=O)N(CCCCCC(=O)Nc2ccccc2N)CC(=O)NC2CCCCC2)c1	=	481
Cc1cc(C)cc(CNC(=O)CN(CCCCCC(=O)Nc2ccccc2N)C(=O)c2cc(C)cc(C)c2)c1	=	583
CN(C)c1ccc(C(=O)N(CC(=O)NCc2ccccc2)Cc2ccc(C(=O)Nc3cc(-c4ccccc4)ccc3N)cc2)cc1	>	10000
Nc1ccccc1NC(=O)CCCCCN(CC(=O)NC1CCCCC1)C(=O)c1ccccc1	=	858
CN(C)c1ccc(C(=O)N(CCCCCC(=O)Nc2ccccc2N)CC(=O)NCc2ccccc2)cc1	=	312
